These measurements were taken from patent US8927500B2.

Below, each entry is listed with its recorded IC50.
# assay.target: MDM2 (Homo sapiens, UniProt Q00987)
# Sequence (Q00987 1-125): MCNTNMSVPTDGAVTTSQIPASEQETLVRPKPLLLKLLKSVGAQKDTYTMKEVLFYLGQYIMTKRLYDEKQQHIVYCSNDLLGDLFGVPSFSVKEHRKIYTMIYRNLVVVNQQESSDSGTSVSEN
# assay.name: Competitive fluorescence polarization assay for MDM2
# Assay type: binding
# particulars: competitive FP assay, MDM2; read-out: IC50 (MDM2)
Where a SMILES comes first, the peptide text is derived from it. Bridges are numbered along the chain shown (N, C = ends). [ ]: non-standard residue; d: D form. R8 = C=CCCCCCC[C@@](C)(N)C(=O)O; hLeu = CC(C)CC[C@H](N)C(=O)O; S5 = C=CCCC[C@](C)(N)C(=O)O; Ac3c = NC1(C(=O)O)CC1

compound	measure.name	assay.result
CC[C@H](C)[C@H](NC(=O)[C@H](C)NC(=O)[C@H](C)NC(=O)[C@]1(C)CCCC=CCCCCCC[C@@](C)(NC(=O)[C@H](Cc2ccccc2)NC(=O)[C@@H](NC(=O)[C@H](CC(C)C)NC(C)=O)[C@@H](C)O)C(=O)N[C@@H](C)C(=O)N[C@@H](CCC(=O)O)C(=O)N[C@@H](Cc2c[nH]c3ccccc23)C(=O)N[C@@H](C)C(=O)N[C@@H](CCC(N)=O)C(=O)N[C@@H](CC(C)C)C(=O)N1)C(=O)N[C@H](C)C(N)=O [compound 180] (Ac-LTF[R8]AEWAQL[S5]AAI[dA]-NH2; staple 4-11)	IC50	10 to 100 nM

For the next question, use this compound.
## Task # lookup: IC50 of CC(=O)N[C@@H](Cc1ccccc1)C(=O)N[C@]1(C)CCCCCCC=CCCC[C@@](C)(C(=O)N[C@@H](C)C(=O)N[C@@H](C)C(=O)N[C@@H](CCC(C)C)C(N)=O)NC(=O)[C@H](CC(C)C)NC(=O)C2(CC2)NC(=O)[C@H](CCC(=O)O)NC(=O)[C@H](Cc2c[nH]c3ccccc23)NC(=O)[C@H](Cc2ccc(O)cc2)NC(=O)[C@H](C)NC1=O [compound 17] (Ac-F[R8]AYWE[Ac3c]L[S5]AA[hLeu]-NH2; staple 2-9)
## Result 10 to 100 nM

----------
Below, each entry is listed with its recorded 6.25 uM % Lysed cells (1 h LDH).
# Tested on: SJSA-1 cells
# assay.name: Cell lysis by peptidomimetic macrocycles (LDH release)
# Format: cell-based
# particulars: 6.25 uM, 1 h at 37C
Where a SMILES comes first, the peptide text is derived from it. Bridges are numbered along the chain shown (N, C = ends). [ ]: non-standard residue; d: D form. R8 = C=CCCCCCC[C@@](C)(N)C(=O)O; S5 = C=CCCC[C@](C)(N)C(=O)O; Ac3c = NC1(C(=O)O)CC1
Write down the value, and be sure its unit follows.

Recorded results for 2 molecules are shown here.
molecule	6.25 uM % Lysed cells (1 h LDH)
CC(=O)N[C@@H](Cc1ccccc1)C(=O)N[C@]1(C)CCCCCCC=CCCC[C@@](C)(C(=O)N[C@@H](C)C(=O)N[C@@H](C)C(=O)N[C@@H](Cc2ccccc2)C(N)=O)NC(=O)[C@H](CC(C)C)NC(=O)C2(CC2)NC(=O)[C@H](CCC(=O)O)NC(=O)[C@H](Cc2c[nH]c3ccccc23)NC(=O)[C@H](Cc2ccc(O)cc2)NC(=O)[C@H](C)NC1=O [compound 18] (Ac-F[R8]AYWE[Ac3c]L[S5]AAF-NH2; staple 2-9)	0%
CC[C@H](C)[C@H](NC(=O)[C@H](C)NC(=O)[C@H](C)NC(=O)[C@]1(C)CCCC=CCCCCCC[C@@](C)(NC(=O)[C@H](Cc2ccccc2)NC(=O)[C@@H](NC(=O)[C@H](CC(C)C)NC(C)=O)[C@@H](C)O)C(=O)N[C@@H](C)C(=O)N[C@@H](Cc2ccc(O)cc2)C(=O)N[C@@H](Cc2c[nH]c3ccccc23)C(=O)N[C@@H](C)C(=O)N[C@@H](C)C(=O)N[C@@H](CC(C)C)C(=O)N1)C(=O)N[C@@H](C(N)=O)C(C)C (single isomer, unassigned) [compound 77]	−2%

## Task For SJSA-1 cells, provide 6.25 uM % Lysed cells (1 h LDH) of CC[C@H](C)[C@H](NC(=O)[C@H](C)NC(=O)[C@H](C)NC(=O)[C@]1(C)CCCC=CCCCCCC[C@@](C)(NC(=O)[C@H](Cc2ccccc2)NC(=O)[C@@H](NC(=O)[C@H](CC(C)C)NC(C)=O)[C@@H](C)O)C(=O)N[C@@H](CCC(=O)O)C(=O)N[C@@H](Cc2ccc(C(=O)O)cc2)C(=O)N[C@@H](Cc2c[nH]c3cc(Cl)ccc23)C(=O)N[C@@H](C)C(=O)N[C@@H](CCC(N)=O)C(=O)N[C@@H](CC2CCC2)C(=O)N1)C(=O)N[C@H](C)C(N)=O (single isomer, unassigned) [compound 335] please.
## Result 0%

## Task For SJSA-1 cells, provide 6.25 uM % Lysed cells (1 h LDH) of CC(=O)N[C@@H](Cc1ccccc1)C(=O)N[C@]1(C)CCCCCCC=CCCC[C@@](C)(C(=O)N[C@@H](C)C(=O)N[C@@H](C)C(=O)N[C@@H](CC(C)C)C(N)=O)NC(=O)[C@H](CC(C)C)NC(=O)C2(CC2)NC(=O)[C@H](CCC(=O)O)NC(=O)[C@H](Cc2c[nH]c3ccccc23)NC(=O)[C@H](Cc2ccc(O)cc2)NC(=O)[C@H](C)NC1=O [compound 15] (Ac-F[R8]AYWE[Ac3c]L[S5]AAL-NH2; staple 2-9) please.
## Result 1%

## Task For SJSA-1 cells, provide 6.25 uM % Lysed cells (1 h LDH) of CC(=O)N[C@@H](CC(C)C)C(=O)N[C@H](C(=O)N[C@@H](Cc1ccccc1)C(=O)N[C@]1(C)CCCCCCC=CCCC[C@@](C)(C(=O)N[C@@H](C)C(=O)N[C@@H](C)C(=O)N[C@@H](Cc2ccccc2)C(=O)N[C@H](C)C(N)=O)NC(=O)[C@H](CC(C)C)NC(=O)[C@H](CCC(N)=O)NC(=O)[C@H](C)NC(=O)[C@H](Cc2c[nH]c3ccccc23)NC(=O)[C@H](Cc2ccc(O)cc2)NC(=O)[C@H](CCC(=O)O)NC1=O)[C@@H](C)O (single isomer, unassigned) [compound 218] please.
## Result 0%
